Reference source for all entries: the nanobody polyreactivity screen of Harvey et al. (2022)

Assay: yeast display, Sf9 membrane polyspecificity reagent, FACS + sequencing; frameworks hold sequencing errors
Readout: polyreactivity (PSR sort gate)

Polymer sequence: QVQLVESGGGLDHAGGSLRLSCAPSGRIFSVNAMGWYRQAPGKERELVAAITSGDSTNYADSVKGRFTISRDNAKNTVYLQSNSMKQEDTAVYYCNARGSQELWRRKWYHTEYDSWGQGTQVSVSS
polyreactivity (PSR sort gate): low polyreactivity

Polymer sequence: QVQLVESGGGLVQAGGSLRLSCAASGRILRGNAMGWYRQAPGKEREFFAAIRRSGGTSYYADSVKGRFTISRDNAKNTVYLQMNSLKPEDTAVYYCAATKYQTSGDRGYEHWGQGTQVTVSS
polyreactivity (PSR sort gate): low polyreactivity

Polymer sequence: QVQLVESGGGLVQAGGSLRLSCAASGFTFAYYAMGWDRQSPGNEREFVAAISSRGGSTYADSVKGRFTISRDNAKNTVYLQMNSLKPEDTAVYYCNAVVPRSRYFSWTYDYWGQGTQVTVSS
polyreactivity (PSR sort gate): high polyreactivity

Polymer sequence: QVQLVESGGGLVQAGGSLRLSCAASGRTFGYYAMGWYRKAPGKERELVAAISWRGTSTYYADSVKGRFTISRDNAKNTVYLQMNSLKPEDTAVYYCAVGRTVAHRFIAGDYWGQGTQVTVSS
polyreactivity (PSR sort gate): high polyreactivity

Would you kindly look at the next entry?
Prompt: Given QVQLVESGGGLVQAGGSLRLSCAASGSIFGVNAMGWYRQAPGKERELVASITGGDSTNYADSVKGRFTISRDNAKNTVYLQMNSLKPEDSAVYYCAKDHYYRYEEGDYWGQGTQVTVSS , state its recorded polyreactivity (PSR sort gate).
Response: low polyreactivity

----------
Test: yeast display, Sf9 membrane polyspecificity reagent, FACS + sequencing; frameworks hold sequencing errors

Polymer sequence: QVQLVESGGGLVQAGGSLRLSCAASGLTFVWYAMGWYRQAPGKERELVAAIRGGGSTYYADSVKGRFTISRDNAKNTVYLQMNSLKPEDTAVYYCAAPYARCLFYLLHYPRFSYDYWGQGTQVTVSS
polyreactivity (PSR sort gate): high polyreactivity
--
Polymer sequence: QVQLVESGGGLVQAGGSLRLSCAASGFTFRRYTMGWYRQAPGKERELVARISSRGGRTFYADSVKGRFTISRDNAKNTVYLQMNSLKPEDTAVYYCAKRAPYGTTSPGGDYWGQGTQVTVSS
polyreactivity (PSR sort gate): high polyreactivity

----------
Test: yeast display, Sf9 membrane polyspecificity reagent, FACS + sequencing; frameworks hold sequencing errors
Readout: polyreactivity (PSR sort gate)

Polymer sequence: QVQLVESGGGLVQAGGSLRLSCAASGITFVYNAMGWYRQAPGKERELVASITFGGGSTYYADSVKGRFTISRDNAKITVYLQMHSLKPEDTAVYYCAARLHVAFDYWGQGTQVTVSS
Result: low polyreactivity

Polymer sequence: QVQLVESGGGLVQAGGSLRLSCPASGRILYLNVLGWYRQEPGKERELVASITVSGGITYYADSVKGRFTISRDNAKNTVYLQMNSLKPEDTAVYYCAVDAYPPFFYFTSVWFSYDYWGQGTQVTVSS
Result: low polyreactivity

----------
Test: yeast display, Sf9 membrane polyspecificity reagent, FACS + sequencing; frameworks hold sequencing errors

Polymer sequence: QVQLVESGGGLVQAGGSLRLSCAASGSIFTPYAMGWYRQAPGKEWELVAAISWRGCNTYYADSVKGRFTISRDNAKNTVYLQMNSLKPEDTAVYYCAAEQNYVYETGSYDYWGQGTQVTVSS
polyreactivity (PSR sort gate): low polyreactivity
//
Polymer sequence: QVQLVESGRGLVLAGGSLRLSCAASGFIFSYNAMGSYRLAPGKERELVAAISSSGGTTYYADSVKGRFTISRDNAKNTVYLQMNSLKPEDTAVYYCAADGRTYHHHDCGWYRYDYWGQGSQVTVSS
polyreactivity (PSR sort gate): low polyreactivity
//
Polymer sequence: QVQLVESGGGLDQAGGSLRLSCAASGLTFYTYAMGWYRQAPGTERELVAAIRWRGGRTYYADSVKGRFTISRDNAKNTVYLQMNSLKPEDTAVYYCAADYSTLYKYDYWGQGTQVTVSS
polyreactivity (PSR sort gate): low polyreactivity

----------
Test: yeast display, Sf9 membrane polyspecificity reagent, FACS + sequencing; frameworks hold sequencing errors
Readout: polyreactivity (PSR sort gate)

Some solved entries appear below for comparison.
Polymer sequence: QVQLVESGGGLVQAGGSLRLSCAASGSIFQYNAMGWYRQVPGKERELVAAITSGGSTYADSVKGRFTISRDNAKNTVYLQMNSLKPEDTAVYYCNADRWFGNYLHLTFLNDYWGQGTQVTVSS
polyreactivity (PSR sort gate): low polyreactivity

Polymer sequence: QVQLVESGGGLVQAGGSLRLSCAASGRIFKKNAMGWYRQAPGKERELVAAIRGSGDSTFYADSVKGRFTISRDNAKNTVYLQMNSLKPEDTAVYYCAAGDVPRRIYLVYVGYLLDYWGQGTQVTVSS
polyreactivity (PSR sort gate): low polyreactivity

Polymer sequence: QVQLVESGGGLVQAGGSLRFSCAASGGTFFLNVMGWYRPAPGKERELVAAITNSAGSTYYADSVKGRFTISRDNAKNTVYLQMNSLKPEDTAVYYCATDWSKVAGYTSYDYWGQGTQVTVSS
polyreactivity (PSR sort gate): low polyreactivity

Polymer sequence: QVQLVESGGGLVQAGGRLRLTCAASGSIFLEYTMGWSRQAPGKEREVVASISWGGGSTYYADSVKGRFTISRDNAKNTVYLQMNSLKPEDTAVYYCAAVTKLSGIRYNYWGQGTQVTVSS
polyreactivity (PSR sort gate): low polyreactivity

Prompt: Look at this sequence and give its reported polyreactivity (PSR sort gate). QVQLVESGGGLVQAGGSLRLSCAASGRIFQHNTMGWYRQAPGKERDFVAAIRRSGGSTYYADSVKGRFTISRDNAKNTVYLQMNSLKPEDTAVYYCAARDYPTGTRRWGGGDSWGQGTEVTVSS
Response: low polyreactivity

Prompt: Now consider QVQLVETGGGLVQAGGSLRLSCAASGRIFHRNAMGWYRQAPGKEREFVAGITTGSSTYYADSVKGRFTISRDNAKNTVYLQMNSLKPEDTAVYYCAARYFIGSYRPRFDYWGQGTQVTVSS and answer again.
Response: high polyreactivity

Prompt: Continue with QVQLVETGGGLVQAGGSLRLSSAASGSILEGYAMGWYRQAPGKERELVPAISRSGGSTYYADSVKGRFTISRDNAKNTVYLQMKSLKPEDTAVYYCAARYRLDGTHLTGYAYYSWGQGTQGTVSS
Response: high polyreactivity

Prompt: Let us now turn to QVQLQESGDGLVQAVGSLRLSCAASGYISGYYNMGWYRQAPGKERELVAGIDAFGSSTNYADCVKGRFTISRDNAKNTVYLEMNSLKPEDTAVYYFAARPYGDRLFSYWGQGTQVTVSS
Response: low polyreactivity

Prompt: And the next one, QVQLVESGGGLVQAGCSLRLSCAASGTIFWYYAMGWYRQAPGKERELVAAISSGGSTYYADSVKGRFTISRDNAKNTVYLQMNSLKPEDTAVYYCNVRLRKKIQNSKYDYWGQGTQVTVSS ?
Response: high polyreactivity

Prompt: Follow-up entry: QVQLVESGGGLVQAGGSLRLSCAASGRIFKRYDMGWYRQAPGKERELVAAITGTGGSTYYADSVKGRFTISRDNAKNTVYLQMNSLKPEDTAVYYCAARLYNTYSGFAFGYWGQGTQVTVSS
Response: high polyreactivity

Prompt: For QVQLVESGGGLDQAGRSLRLICAASVFTIHAYAMGRYRQAHGKERELVAAISASGGSTYYADSVKGRFTISRDNANNTVYLKMNSLKPEDTAVYYCNAGDYRTFYRRFDYWGQGTQVTVSS then?
Response: low polyreactivity

Prompt: Another: QVQLVESGGGLVQAGGSLRLSCAASGSTFQRYTMGWYSQAPGKERELVAAISQSGGRTYYADSVKGRFTISREHAKKTVYLEMNSLKPEDTAVYSCNAASRTKFDYWGQGTQVTVSS
Response: high polyreactivity

----------
Experiment: yeast display, Sf9 membrane polyspecificity reagent, FACS + sequencing; frameworks hold sequencing errors
Readout: polyreactivity (PSR sort gate)

Record excerpt, results attached:
Polymer sequence: QVQLVESGGGLVQAGGSLRLSCAASGFTVSAYALGWYRQAPGKERELVAAISTRGGSTRYADSVKGRFTISRDNAKNTVYLQMNSLKPEDTAVYYCAADTRSFYRYDYWGQGTQVTVSS
Result: high polyreactivity

Polymer sequence: QVQLVESGGGLVQAGGSLRLSCAASGSIFVNNAMVWYRQAPGKERELVAAISSRGGSTYYADSVKGRFTISRDNAKNTVYLQMNSLKPEDTAVYYCAAAGYGKVRGDYWGQGTQVTVSS
Result: low polyreactivity

Polymer sequence: QVQLVESGGGLVQAGGSLRLSCAASGLTFGGYVMGWYRQAPGKERELVAAISGSGGRTYYADSVKGRFTISRDNAKNTVYLQRNSLKPEDTAVYDCARPPRGPPRGYYWGQGTQVTVSS
Result: high polyreactivity

Polymer sequence: QVQLVESGGGLVQAGGSLRLSCAASGIILSDYAMGWYRPAPGKERELVAAITSGGGSTYYADSVKGRFTISRDNAKNTVYLQMNSLNPEDTAVYFCAADLTSYYGGDYWGQGTQVTVSS
Result: low polyreactivity

Polymer sequence: QVQLVESGGGLVQAGGSLRLSCADSGFIFVVKAMGWYRQAPGKEREIVAVISSSTGSTYYADSVKGRFTISRDNAKNTVYLQLNSLKPEDTAVYSCAAASRRRRPLKRMYYWGQGTQVTVSS
Result: low polyreactivity

Polymer sequence: QVHLVESGGGLVQAGGSLRLSCAASGRTFPSNVMGWYRQAPGKERELVAGITWRGASTYYADSVKGRFTISRDNAKNTVYLQMNSLKPEDTAVYYCAVRTQYRRYEYWGQGTKVTVSS
Result: high polyreactivity

Polymer sequence: QVQLVESGGGLVQAGGSLRLSCAASGRIFPSYAMGWYRKAPGKERELVAAISDSDGSTYYADSVKGRFTISRDNAKNTVYLQMNSLKPEDTAVYYCAAEGSFPAYDYWGQGTQVTVSS
Result: low polyreactivity

Polymer sequence: QVQLVESGGGLVQAGGRLRLSCAASGFSFSLYGMGWYRQAPGKERELVAAIRSGGSPNYADSVKGRFTISRDNAKNTVYLQMNSLKPEDTAVYYGATDIHSVHNNRDKHDYDYWGQGTQETVSS
Result: low polyreactivity

Polymer sequence: QVQLVESGGGLVQAGRSLRLSCAASGRTFPYNAMGWYRQAPGKESELVAAITSGGTTNYADSVKGRFTISRDNAKSTVYLQFNRLKPEDTAVYYCAADSDASSQFRRDYWGQGSQVTVSS
Result: low polyreactivity

Polymer sequence: QVQLVESGGGLVQAGGSLRLSCAASGSIFGYYTMGWYRQAPGKERELVAAITSGGSTHYADSVKGRFTISRDNAKKTGYLQMNSLKPEDTAVYYCAKVSYYPWRYDYWGQGTQVTVSS
Result: low polyreactivity

Proceed to the following item.
Prompt: So what's the measured polyreactivity (PSR sort gate) for this one? QVQLVESGGGLVQAGRSLPLSCAASGRIIELYGMGWKRPATGKERELVAAMSYGGGSTYYAESVKGRFTISRDNAKNTVYLQMNSLKPEDTAVYYCAARYRTLTKYYWGQGTQVTVSS
Response: low polyreactivity
